# MEASUREMENT_TARGET: GST-RAMANK1-CSL complex (human) (UniProt P46531)
# TEST_METHOD_NOTES: ALPHAscreen NTC competition: peptide titrated against Bio-sdnMAML1 binding to GST-RAMANK1-CSL; IC50 with 95% CI
Bridge positions count the residues as written; N and C are the ends. Square brackets hold non-standard residues; d marks the D form. Ends that are not written are not given here. 1Nal = N[C@@H](Cc1cccc2ccccc12)C(=O)O; 2Nal = N[C@@H](Cc1ccc2ccccc2c1)C(=O)O; S5 = C=CCCC[C@](C)(N)C(=O)O; βAla = NCCC(=O)O
Item-by-item account of IC50
Write the number in nM without appending the unit.

Ac-W[βAla]ERWRRRL[S5]LCR[S5]HHSTCEAR[1Nal] (staple 10-14; cysteine pairing not given here) [SAHM1-51] = 360

Provide measured IC50 value, entry: Ac-W[βAla]ERWRRRL[S5]LCR[S5]HHSTCEAR[2Nal] (staple 10-14; cysteine pairing not given here) [SAHM1-50]
410

Item Ac-W[βAla]ERWRRRL[S5]WFR[S5]HHST (staple 10-14) [SAHM1-39] : provide IC50
900

Note IC50 for the binder shown: Ac-W[βAla]ERLRRRI[S5]LCR[S5]HHST (staple 10-14) [AcW-SAHM1 (stapled MAML1 E21-T36 peptide with N-acetyl tryptophan cap)]
1700

Name the recorded IC50 of the item Ac-W[βAla]ERWRRRL[S5]YVR[S5]HHST (staple 10-14) [SAHM1-48] in your answer.
670

Value source: patent US20140256912A1
